Experiment: qHTS for identification of novel therapeutic agents for treatment of microphthalmiaassociated transcription factor (MiT) renal cell carcinoma (RCC) (AID 1963991);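 also: curves scaled with 100% = DMSO viability and 0% = empty wells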
Conditions: TFE3-RCC viability, CellTiter-Glo, 48 h; measured here: UOK124 Z-AUC; stronger effect = lower value
Inconclusive results are not listed.
I'd be grateful if you could share measured z-score for these entries.
Numbers only.

> print(dat)
                                   compound  parametermeasured  measurement
1  Cc1c(CN2CCN(C(=O)C(C)C)CC2)sc2c(N3CCOCC3)nc(-c3cnc(N)nc3)nc12            z-score        -1.54
2  CCOc1cc(C=C2C(=O)N(c3ccccc3)N=C2C)cc(Cl)c1OCC(=O)OC            z-score        0.208
3  O=C(C=Cc1ccc(/C=C/C(=O)Nc2ccc(C3=NCCN3)cc2)cc1)Nc1ccc(C2=NCCN2)cc1            z-score        0.767
4                  NC[C@H](O)c1ccc(O)c(O)c1            z-score        0.472
5  O=C(O)COCCN1CCN(C(c2ccccc2)c2ccc(Cl)cc2)CC1 (stereo unspecified)            z-score        0.439

For every item below, please supply its z-score.
1. Cc1cc(SCc2sc(-c3ccc(C(F)(F)F)cc3)nc2C)ccc1OCC(=O)O
2. COc1ccccc1-c1cccc(-c2c(O)c3cc(C#N)c(Cl)cc3[nH]c2=O)c1

[0.482, -0.0424]

Go through the items and report each one's z-score.
1. CC(C)OC(=O)C1=CN(C(=O)c2ccc(F)c(F)c2)CC(C)(C)c2c1[nH]c1ccccc21
2. CNC(=O)c1ccc(C)c(-n2c(C)cc(OCc3ccc(F)cc3F)c(Br)c2=O)c1

1. 0.0335
2. 1.43

For the 2 compounds below, give their z-score values.
1. Oc1cccc(-c2nc(N3CCOCC3)c3oc4ncccc4c3n2)c1
2. NS(=O)(=O)c1cc2c(cc1Cl)NC=NS2(=O)=O

[-1.8, 0.944]

====

Experiment: qHTS of pediatric cancer cell lines to identify multiple opportunities for drug repurposing: Primary screen for DAOY cells (AID 1347090); also: nearly all actives have a fitted effect of over 55% in size
Conditions: DAOY medulloblastoma viability, CellTiter-Glo luminescence, 48 h; series mostly up to 46 µM
Records with an inconclusive call do not appear. Active and inactive are the calls of the source. The call rests on the fitted dose curve; in most records, active means well fitted cell-killing curve with a large enough effect; inconclusive means small, poorly fitted or top-dose-only effect; inactive means flat fitted curve, though single readings scatter.
Answer with one of the outcomes active, inactive

> print(dat)
                compound  answerlabel
1  O=c1[nH]cnc2[nH]ncc12     inactive

Given NNCCc1ccccc1 , state the outcome it received in this test. inactive

Write down the call the test reported for this compound. Item: Cc1ccccc1C(OCCN(C)C)c1ccccc1 (stereo not given) inactive

Called result for Clc1cccc(Cl)c1NC1=NCCN1 inactive

I'd appreciate the recorded outcome for CCCc1nc2c(C)cc(-c3nc4ccccc4n3C)cc2n1Cc1ccc(-c2ccccc2C(=O)O)cc1 from this test. inactive

Assay outcome for O=C1[C@H](Cc2ccc(O)cc2)N2C(=O)CCN(C(=O)NCc3ccccc3)[C@H]2CN1Cc1cccc2ccccc12 : what was it? active

====

Assay: qHTS of pediatric cancer cell lines to identify multiple opportunities for drug repurposing: Primary screen for A673 cells (AID 1347092); also: nearly all actives have a fitted effect of over 45% in size
Conditions: A673 Ewing sarcoma viability, CellTiter-Glo ATP luminescence, 48 h; series mostly up to 46 µM
Records with an inconclusive call do not appear. Activity calls are given as the source filed them. The call rests on the fitted dose curve; in most records, active means well fitted cell-killing curve with a large enough effect; inconclusive means small, poorly fitted or top-dose-only effect; inactive means no such curve, though single readings can be large or run the other way.
Select the correct class. Options are TRUE (active), FALSE (inactive) and nothing else.

Called result for Oc1cccc(-c2nc(N3CCOCC3)c3oc4ncccc4c3n2)c1 TRUE

From: PubChem BioAssay (NCATS)
